# Test system: OVCAR-8 ovarian
# ASSAY: NCI tumour cell line growth inhibition, 48 h
Here, each record is paired with measured TGI data.
The figure you give is taken to be in µM; do not add the unit.

Some compounds with recorded TGI:
Record C=CCc1cc(C(Cc2ccccc2)NC(C)C)cc(OCc2ccccc2)c1OCc1ccccc1 (configuration not stated) . Reported TGI: 31.5

Record C[C@]12CCNC(=O)C=C1CC[C@@H]1C2CC[C@@]2(C)C1CC[C@@H]2OC(=O)COc1ccc(N(CCCl)CCCl)cc1 (some centres not stated) . Reported TGI: 17.8

Others:
Record CN(C)c1ccc(/C=c2/c3ccccc3n3c2c2cc(F)ccc2[n+]3C)cc1 . Reported TGI: 16.4

Record CN(C)CCNC(=O)c1cccc2ccc(-c3ccc(-c4ccccc4)cc3)nc12 . Reported TGI: 7.66

Record Cc1ccc2oc3c(c(Br)c(Br)n3C)c(=O)c2c1 . Reported TGI: 31.9

Record CC1(C)CC(=O)c2c(nc3c(ccc4ccccc43)c2-c2ccc(NC(=O)CCCCC(=O)Nc3ccc(-c4c5c(nc6c4ccc4ccccc46)CC(C)(C)CC5=O)cc3)cc2)C1 . Reported TGI: 98.4

Record Nc1ccc(-c2nc3ccccc3s2)cc1C#Cc1ccccc1 . Reported TGI: 42.4

Record COP(=O)(OC)/C(=C/c1cn(C(c2ccccc2)(c2ccccc2)c2ccccc2)cn1)NC=O . Reported TGI: 60.4
